Data origin: patent US20250360134A1

# System: Trypanosoma 9 and 11 chromosomic sequence FTrypBT
# assay_summary: FRET-melting, FTrypBT
# condition_context: K+ condition, 2 μM compound, 0.2 μM oligonucleotide
Where a name gives a salt, the structure may show the parent alone.
Decision: FRET-melting values in K+ conditions at 2 μM ΔTm FtryBT >= 8 °C yields label 1, all other cases yield label 0.

molecule: CN1CCN(CCCNCc2ccc(-c3nc(-c4ccc(CNCCCN5CCN(C)CC5)cc4)c4ccn(C)c4n3)cc2)CC1 [Compound 9B, oxalate]
discrete_label: label 1

molecule: CN(C)CCCNCc1ccc(-c2nc3c(c(-c4ccc(CNCCCN(C)C)cc4)n2)CCN(C(=O)OC(C)(C)C)C3)cc1 [Compound 24B]
discrete_label: label 0

molecule: COC(=O)C(CCCCNCc1ccc(-c2nc(-c3ccc(CNCCCCC(NC(=O)OC(C)(C)C)C(=O)OC)cc3)c3ccn(C)c3n2)cc1)NC(=O)OC(C)(C)C (stereo not drawn) [Compound 10B]
discrete_label: label 1

molecule: CN(C)CCCNCc1ccc(-c2nc(-c3ccc(CNCCCN(C)C)s3)c3ccn(-c4ccccc4)c3n2)cc1 [Compound 6B, oxalate]
discrete_label: label 1

molecule: CN(C)CCCNCc1ccc(-c2cc(Cl)nc3c2ccn3-c2ccccc2)cc1 [Compound 47B, oxalate]
discrete_label: label 0
